Recorded yeast fitness for the following variants
B1: tRNA (parent)
chain: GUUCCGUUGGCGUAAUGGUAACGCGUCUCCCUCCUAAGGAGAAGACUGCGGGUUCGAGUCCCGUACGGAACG

Variants of: B1
Assay: yeast fitness relative to wild type (ratio to wild type); higher = fitter; tRNA-Arg(CCU), competitive growth, 37 C, YPD
Variants at the floor of the assay were thinned out.
parameter.measured: yeast fitness

mutant.name	parameter.measured	sign.qualifier	value.reported
C4A C27U U28G C33G A36G G50C C66U	yeast fitness	≤	0.5
A20G U54G A57U	yeast fitness	≤	0.5
U28A A42C	yeast fitness	=	0.797
C5G C11A A14G G25C C29G A57U C66U	yeast fitness	≤	0.5
A21U G52A C62G	yeast fitness	≤	0.5
C30G C60A C66U	yeast fitness	=	0.551
U3C U7A G25A A42U U64A	yeast fitness	≤	0.5
C5U A21U C29U C30G A70U	yeast fitness	=	0.543
A40C G58A	yeast fitness	=	0.962
A36C G39A A57U	yeast fitness	≤	0.5
U3G C30G A40C C46U	yeast fitness	=	0.57
A37G G58A	yeast fitness	=	0.976
C4U G12A G67A	yeast fitness	=	0.674
G38C G48C	yeast fitness	=	0.722
G9A C11U C29U A65U	yeast fitness	≤	0.5
A15G A42U A57C	yeast fitness	=	0.532
C4G A15U A21G G48A G50C	yeast fitness	≤	0.5
U26G C49G	yeast fitness	=	0.851
A20U A42U A45G	yeast fitness	=	0.532
C31G C34G A45U G63C	yeast fitness	≤	0.5
U16C C22A C30U C31G	yeast fitness	≤	0.5
C46A G50A	yeast fitness	=	0.925
G6C A37G A40U A45C	yeast fitness	=	0.702
G38A	yeast fitness	=	1.02
U2C U35A	yeast fitness	=	0.62
U8C A14C C24G G68A	yeast fitness	≤	0.5
C4G U7G C31U	yeast fitness	=	0.56
C4A G17C	yeast fitness	=	0.629
U3C G25C C33G C61G	yeast fitness	≤	0.5
U2A A36G C49A C61U	yeast fitness	≤	0.5
C11A C31G A42U G67A	yeast fitness	≤	0.5
G50C G67A	yeast fitness	=	0.816
C11U U35C C55A A69U	yeast fitness	≤	0.5
C11U A36U G39A	yeast fitness	≤	0.5
G9A C34A G58A	yeast fitness	=	0.667
U8C U13C C24A A37G	yeast fitness	=	0.761
A40U G56C	yeast fitness	=	0.651
A43U C49G A69C	yeast fitness	=	0.512
C11U C49A A57C	yeast fitness	≤	0.5
A20G G44A	yeast fitness	=	0.962
U2G A14C A65C	yeast fitness	≤	0.5
G10A C60U	yeast fitness	=	0.544
C33U C49A G63C	yeast fitness	≤	0.5
G38C U54C	yeast fitness	=	0.82
A14U C62U C66G	yeast fitness	≤	0.5
C5U G17A	yeast fitness	=	0.929
U16A G63A	yeast fitness	=	0.798
A21G A42U G67A	yeast fitness	=	0.54
A21U C49U U54A	yeast fitness	≤	0.5
C4G C30A G50U C66U	yeast fitness	≤	0.5
C5G A14U A21G G23A C31U G63C U64A C66G	yeast fitness	≤	0.5
C5U U8C A21G A42U G58A	yeast fitness	=	0.726
C22A C24G A36C	yeast fitness	≤	0.5
A43C G68U	yeast fitness	=	0.868
C27G A37C A57C	yeast fitness	≤	0.5
C33U A43U C49G G50C C61U U64C C66U	yeast fitness	≤	0.5
U28C U32A G44A A57C	yeast fitness	≤	0.5
U8C G48A C55A G58C	yeast fitness	≤	0.5
C5U G39C	yeast fitness	=	0.769
A20U A36G G48C G67C	yeast fitness	≤	0.5
G9A G12C G17A C22G C30U C34G C49U U59G	yeast fitness	≤	0.5
U13C A21C C27U G63A A65G	yeast fitness	≤	0.5
A14G U26G A43C G68A	yeast fitness	≤	0.5
C31U A40U U59C	yeast fitness	=	0.648
A36C C49U C55U C60U	yeast fitness	≤	0.5
C30U A69C	yeast fitness	=	0.773
A14G A37G	yeast fitness	=	0.718
A14C G39C C60U	yeast fitness	≤	0.5
C46G C49A C61U	yeast fitness	=	0.597
C30G C31A G63C	yeast fitness	=	0.546
C4A A15G C62U	yeast fitness	=	0.594
C33A A57U C66U A69U	yeast fitness	≤	0.5
G6C C11U A20C	yeast fitness	≤	0.5
G18A A70C	yeast fitness	=	0.74
C4A G6A C30A A65G	yeast fitness	≤	0.5
G9C C22G G50A	yeast fitness	≤	0.5
A36G A37U A69C	yeast fitness	=	0.663
C4A G6A G50A	yeast fitness	≤	0.5
A42U G44C U54A C66U G67A	yeast fitness	≤	0.5
U13A A40U C55U	yeast fitness	=	0.681
G6C G12A C24G G58C	yeast fitness	≤	0.5
C4G U7G A20G A65U	yeast fitness	≤	0.5
G38C A40C G51C C62U A69U	yeast fitness	≤	0.5
U7A C55U C61A	yeast fitness	=	0.508
A21G U26C G48C	yeast fitness	=	0.615
G6C A40G	yeast fitness	=	0.767
U19C A21G U26G G48C	yeast fitness	=	0.624
C27A C31A G52A G58C	yeast fitness	≤	0.5
U13A C27U G50U	yeast fitness	=	0.674
C5G A45C U54G	yeast fitness	=	0.622
A15C G17A A57C	yeast fitness	=	0.527
